Please provide measured Ki for the entries that follow.
experimental system: T1, human GIP receptor (human, UniProt P48546 22-466)
T1 construct: whole, on cells; Used as crude membranes of stably transfected CHO cells; also called hGIPR
T1 sequence (looked up): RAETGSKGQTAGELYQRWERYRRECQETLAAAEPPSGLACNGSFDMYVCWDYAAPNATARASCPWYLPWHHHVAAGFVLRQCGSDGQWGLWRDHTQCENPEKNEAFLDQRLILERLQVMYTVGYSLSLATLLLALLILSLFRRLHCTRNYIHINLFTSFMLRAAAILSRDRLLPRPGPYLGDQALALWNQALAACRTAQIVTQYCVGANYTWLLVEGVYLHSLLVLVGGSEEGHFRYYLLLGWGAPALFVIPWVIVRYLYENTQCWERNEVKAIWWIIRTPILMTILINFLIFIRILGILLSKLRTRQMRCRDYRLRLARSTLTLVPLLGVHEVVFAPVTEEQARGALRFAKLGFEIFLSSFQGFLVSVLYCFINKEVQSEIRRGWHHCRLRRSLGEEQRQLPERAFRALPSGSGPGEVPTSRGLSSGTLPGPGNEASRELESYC
assay notes: SPA, [125I]-GIP displacement, hGIPR membranes
One number for each entry, in nM.

Sample answers from the record:
[[record]]
binder = "YXEGTFTSDYSIXLDKKAQXAFIEYLIEGGPSSGAPPPS (Aib2; αMeL13; K17((2-[2-(2-Amino-ethoxy)-ethoxy]-acetyl)2-(γ-Glu)-CO-(CH2)18-CO2H); Aib20; C-terminal NH2) [Example 20]"
measured = 0.0849

[[record]]
binder = "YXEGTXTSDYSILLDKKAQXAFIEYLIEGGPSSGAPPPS (Aib2; αMeF6; K17((2-[2-(2-Amino-ethoxy)-ethoxy]-acetyl)2-(γ-Glu)-CO-(CH2)18-CO2H); Aib20; C-terminal NH2) [Example 57]"
measured = 0.0583


Per the records, this binder ( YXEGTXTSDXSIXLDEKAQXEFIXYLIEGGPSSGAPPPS (not printed (the compound name of this Example is missing from the table of Examples 6-287)) [Example 181] ) has Ki equal to 0.145

Taken from patent US20200024322A1.
